Conditions: 303.15 K; 30000 kPa; Liquid
Test Readout: mass density (kg/m3)
Please give a number only; it is taken to be in kg/m3.

// worked examples, mass density included
>  <Compound>
CCCCCCCCCCCCCC[P+](CCCCCC)(CCCCCC)CCCCCC.CS(=O)(=O)[O-] [trihexyltetradecylphosphonium methanesulfonate]

>  <mass density / kg/m3>
941.5

$$$$
>  <Compound>
CCCCCCCCCCCCCC[P+](CCCCCC)(CCCCCC)CCCCCC.N#C[N-]C#N [tetradecyl(trihexyl)phosphonium dicyanamide]

>  <mass density / kg/m3>
909.6

$$$$

Enquiry: Which mass density is listed for CCCCCCCCCCCCCC[P+](CCCCCC)(CCCCCC)CCCCCC.[Br-] [tetradecyltrihexylphosphonium bromide] ?
Return: 966.3

Enquiry: Would you mind doing CCCCCCCCCCCCCC[P+](CCCCCC)(CCCCCC)CCCCCC.O=S(=O)([N-]S(=O)(=O)C(F)(F)F)C(F)(F)F as well?
Return: 1080.1

Enquiry: Would you mind doing CCCCCCCCCCCCCC[P+](CCCCCC)(CCCCCC)CCCCCC.[Cl-] [trihexyl(tetradecyl)phosphonium chloride] as well?
Return: 900.8

----------
Conditions: 313.15 K; 1000 kPa; Liquid
Overview of recorded mass density for various compounds
Please give a number only; it is taken to be in kg/m3.

// worked examples, mass density included
>  <Compound>
CCCCCCCCCCCCCC[P+](CCCCCC)(CCCCCC)CCCCCC.O=S(=O)([N-]S(=O)(=O)C(F)(F)F)C(F)(F)F

>  <Readout Units>
kg/m3

>  <mass density>
1056

$$$$
>  <Compound>
CCCCCCCCCCCCCC[P+](CCCCCC)(CCCCCC)CCCCCC.CS(=O)(=O)[O-] [trihexyltetradecylphosphonium methanesulfonate]

>  <Readout Units>
kg/m3

>  <mass density>
920.1

$$$$
>  <Compound>
CCCCCCCCCCCCCC[P+](CCCCCC)(CCCCCC)CCCCCC.[Cl-] [trihexyl(tetradecyl)phosphonium chloride]

>  <Readout Units>
kg/m3

>  <mass density>
881.1

$$$$

Enquiry: Which mass density is listed for CCCCCCCCCCCCCC[P+](CCCCCC)(CCCCCC)CCCCCC.N#C[N-]C#N [tetradecyl(trihexyl)phosphonium dicyanamide] ?
Return: 890.6

Enquiry: Would you mind doing CCCCCCCCCCCCCC[P+](CCCCCC)(CCCCCC)CCCCCC.[Br-] [tetradecyltrihexylphosphonium bromide] as well?
Return: 944.6

----------
Conditions: 313.15 K; 30000 kPa; Liquid
Test Readout: mass density (kg/m3)
Please give a number only; it is taken to be in kg/m3.

// worked examples, mass density included
>  <Compound>
CCCCCCCCCCCCCC[P+](CCCCCC)(CCCCCC)CCCCCC.O=S(=O)([N-]S(=O)(=O)C(F)(F)F)C(F)(F)F

>  <Reported Measurement>
1073.5

$$$$
>  <Compound>
CCCCCCCCCCCCCC[P+](CCCCCC)(CCCCCC)CCCCCC.[Cl-] [trihexyl(tetradecyl)phosphonium chloride]

>  <Reported Measurement>
895.5

$$$$

Enquiry: Which mass density is listed for CCCCCCCCCCCCCC[P+](CCCCCC)(CCCCCC)CCCCCC.CS(=O)(=O)[O-] [trihexyltetradecylphosphonium methanesulfonate] ?
Return: 935.9

Enquiry: Would you mind doing CCCCCCCCCCCCCC[P+](CCCCCC)(CCCCCC)CCCCCC.N#C[N-]C#N [tetradecyl(trihexyl)phosphonium dicyanamide] as well?
Return: 904.3

Enquiry: Would you mind doing CCCCCCCCCCCCCC[P+](CCCCCC)(CCCCCC)CCCCCC.[Br-] [tetradecyltrihexylphosphonium bromide] as well?
Return: 960.6
